Values from patent US12233161B1

# measurement.notes: Particle size and PDI of nucleic acid lipid nanoparticle preparations by dynamic light scattering
# Assay type: physicochemical
# conditions.used: DMG-PEG2000:DSPC:Chol:Lipid 1.40:11.15:38.95:48.50, N/P 18, mRNA LNP
measured.metric: PDI

P. CCCCCCCCCCCCNC(=O)C(O)CN(CCCN(CCCN(CC(O)C(=O)NCCCCCCCCCCCC)CC(O)C(=O)NCCCCCCCCCCCC)CC(O)CO)CC(O)C(=O)NCCCCCCCCCCCC (centres unmarked)
Q. CCCCCCCCCCNC(=O)C(O)CN(C)CCN(C)CCN(C)CC(O)C(=O)NCCCCCCCCCC (centres unmarked)
Input: Consider P and Q . Which of these has its PDI at a higher number? Kindly give the label for the entry you pick.
Output: Q

====

# measurement.notes: Particle size and PDI of nucleic acid lipid nanoparticle preparations by dynamic light scattering
# Assay type: physicochemical
# conditions.used: DMG-PEG2000:DSPC:Chol:compound 1.40:11.15:38.95:48.50, N/P 20
measured.metric: PDI

INSERT INTO assay_data (compound, measured_metric, assay_result) VALUES
  ('CCCCCCCCCCCCNC(=O)C(O)CN(CCOCCOCCN(CC(O)C(=O)NCCCCCCCCCCCC)CC(O)C(=O)NCCCCCCCCCCCC)CC(O)C(=O)NCCCCCCCCCCCC (stereo not drawn) [Compound L0305]', 'PDI', 0.18),
  ('CCCCCCCCCCCCNC(=O)C(O)CN(CCCCCCCN(CC(O)C(=O)NCCCCCCCCCCCC)CC(O)C(=O)NCCCCCCCCCCCC)CC(O)C(=O)NCCCCCCCCCCCC (stereo not drawn) [Compound L0308]', 'PDI', 0.10),
  ('CCCCCCCCCCCCOC(=O)C(O)CN(CCCCCN(CC(O)C(=O)OCCCCCCCCCCCC)CC(O)C(=O)OCCCCCCCCCCCC)CC(O)C(=O)OCCCCCCCCCCCC (stereo not drawn) [Compound L0319]', 'PDI', 0.13);

====

Reported IVIS is given for each of the following compounds.
# System: mice
# measurement.notes: In vivo delivery of FLuc-mRNA lipid nanoparticles in mice, in vivo imaging (IVIS)
# conditions.used: IV, liver; DMG-PEG2000:DSPC:Chol:compound 1.40:11.15:38.95:48.50, N/P 30; Fluc-mRNA
Enter a number only.

The examples below pair each entry with its known result.
INSERT INTO measurements (compound, study_target, assay_result) VALUES
  ('CCCCCCCCCCOC(=O)C(O)CN(CCN(C)CCN(CC(O)C(=O)OCCCCCCCCCC)CC(O)C(=O)OCCCCCCCCCC)CC(O)C(=O)OCCCCCCCCCC (stereo not drawn) [Compound L0337]', 'mice', '2.66E+06'),
  ('CCCCCCC(CCCCCC)C(=O)OCCCCOC(=O)C(O)CN(CCN(C)CCN(CC(O)C(=O)OCCCCOC(=O)C(CCCCCC)CCCCCC)CC(O)C(=O)OCCCCOC(=O)C(CCCCCC)CCCCCC)CC(O)C(=O)OCCCCOC(=O)C(CCCCCC)CCCCCC (stereo not drawn) [Compound L0297]', 'mice', '3.82E+07'),
  ('CC/C=C\CCOCOCCCCCCOC(=O)C(O)CN(CCN(C)CCN(CC(O)C(=O)OCCCCCCOCOCC/C=C\CC)CC(O)C(=O)OCCCCCCOCOCC/C=C\CC)CC(O)C(=O)OCCCCCCOCOCC/C=C\CC (stereo not drawn) [Compound L0334]', 'mice', '1.01E+08');

Input: # lookup: IVIS of CCCCCCCCCCNC(=O)C(O)CN(CCCN(CCCN(CC(O)C(=O)NCCCCCCCCCC)CC(O)C(=O)NCCCCCCCCCC)C(CO)CO)CC(O)C(=O)NCCCCCCCCCC (stereo not drawn) [Compound L0287]
Output: 3.26E+06
